Tested on: HCI11 (cells of an ER-positive luminal breast cancer xenograft);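 also: PDX cells carrying CMV promoter-driven luciferase, viability read as total photon flux per second by IVIS imaging following D-luciferin, vehicle control 0.1% DMSO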
Assay: cell viability (% of vehicle); higher = less cytotoxic
Settings: 10 µM; 72 h
REPORTED_PROPERTY: cell viability
Give bare numbers.

MOLECULE: CCCC(=O)OC1(C(=O)COC(C)=O)CCC2C3CC(F)C4=CC(=O)C=CC4(C)C3(F)C(O)CC21C (stereo unspecified) [Difluprednate]
REPORTED_PROPERTY: cell viability
ENDPOINT_VALUE: 116

For the 2 molecules below, give their cell viability values.
1. Cl.NC(N)=NC(=O)Cc1c(Cl)cccc1Cl [Guanfacine hydrochloride]
2. Cn1c([N+](=O)[O-])cnc1COC(N)=O

Response:
[86.2, 88.1]

Give me cell viability for each of these molecules, listed below.
1. CCCCCCCCCCCCCCCCO
2. COc1cc(C(=O)O)ccc1NC(=O)C1NC(CC(C)(C)C)C(C#N)(c2ccc(Cl)cc2F)C1c1cccc(Cl)c1F (stereo unspecified)
3. CCN1CCN(c2cc3c(cc2F)c(=O)c(C(=O)O)cn3C2CC2)CC1
4. CCC1OC(=O)C(C)C(OC2CC(C)(OC)C(O)C(C)O2)C(C)C(OC2OC(C)CC(N(C)C)C2O)C(C)(O)CC(C)CN(C)C(C)C(O)C1(C)O.O.O (stereo unspecified) [Azithromycin Dihydrate]
5. COCCc1ccc(OCC(O)CNC(C)C)cc1.COCCc1ccc(OCC(O)CNC(C)C)cc1.O=C(O)C(O)C(O)C(=O)O (stereo unspecified) [Metoprolol Tartrate]
6. Cc1ccc(C(=O)c2cc(O)c(O)c([N+](=O)[O-])c2)cc1
7. Nc1nnc(-c2cccc(Cl)c2Cl)c(N)n1

Response:
95.2
118
91.8
112
95
57.5
89.9

Provide each entry's cell viability from the list below.
1. CS(=O)(=O)N1CCN(Cc2cc3nc(-c4cccc5[nH]ncc45)nc(N4CCOCC4)c3s2)CC1
2. C[N+](C)(C)CCOC(N)=O.[Cl-] [Carbamoylcholine chloride]
3. O=N[O-].[Na+] [Sodium Nitrite]
4. CC(=O)OC12COC1CC(O)C1(C)C(=O)C(O)C3=C(C)C(OC(=O)C(O)C(NC(=O)OC(C)(C)C)c4ccccc4)CC(O)(C(OC(=O)c4ccccc4)C21)C3(C)C.O.O.O (stereo unspecified) [Docetaxel Trihydrate]
5. O=S(=O)([O-])CCS.[Na+]
6. CC(COc1ccccc1)N(CCCl)Cc1ccccc1.Cl (stereo unspecified) [Phenoxybenzamine HCl]

Response:
1. 114
2. 71.4
3. 91.5
4. 86.1
5. 103
6. 114
